Values were extracted from patent US20250388602A1.

- system.under.test: recombinant human DHODH (Homo sapiens (Human))
- Sequence (Q02127 whole entry): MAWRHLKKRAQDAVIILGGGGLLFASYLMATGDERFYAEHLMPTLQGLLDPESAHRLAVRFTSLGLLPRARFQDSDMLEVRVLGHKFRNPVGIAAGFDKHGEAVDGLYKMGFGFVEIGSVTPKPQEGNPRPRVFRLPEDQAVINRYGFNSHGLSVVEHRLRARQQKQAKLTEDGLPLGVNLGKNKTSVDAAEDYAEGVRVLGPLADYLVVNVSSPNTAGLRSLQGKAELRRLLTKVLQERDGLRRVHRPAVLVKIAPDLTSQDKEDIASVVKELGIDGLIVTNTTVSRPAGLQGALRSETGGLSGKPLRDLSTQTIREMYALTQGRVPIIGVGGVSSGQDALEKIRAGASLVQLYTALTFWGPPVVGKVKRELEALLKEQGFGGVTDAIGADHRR
- experimental.details: DHODH enzyme assay (Assay A), DCIP absorbance
- Assay type: biochemical
- experimental.conditions: bins ≥10 nM-<100 nM and <10 nM; read-out: IC50 DHODH inhibition activity
Attribute: IC50
measurement.kind: IC50

{"columns": ["compound", "observed"],
 "data": [
  ["Cc1cccc(-n2ncc3c2COC[C@H]3NC(=O)c2noc3c2CCCC3)c1Cl", "< 10 nM"],
  ["CCc1c(C(=O)N[C@@H]2COCc3c2cnn3-c2cccc(C)c2Cl)n[nH]c1C", "10 to 100 nM"],
  ["COc1ccc(F)c(-n2ncc3c2COC[C@H]3NC(=O)c2cc(C)c(C)cn2)c1Cl", "10 to 100 nM"],
  ["Cc1cccc(-n2ncc3c2COC[C@H]3NC(=O)c2ncn3c2CCCC3)c1Cl", "< 10 nM"],
  ["CCN(CC)C(=O)c1cccc(-n2ncc3c2COC[C@H]3NC(=O)c2ncn3c2CCCC3)c1Cl", "10 to 100 nM"],
  ["O=C(N[C@@H]1COCc2c1cnn2-c1c(F)cccc1Cl)c1ncn2c1CCCC2 (single isomer, unassigned)", "< 10 nM"],
  ["O=C(N[C@@H]1COCc2c1cnn2-c1cccc(C(=O)N2CCCC2)c1Cl)c1ncn2c1CCCC2", "10 to 100 nM"],
  ["COc1cccc(Cl)c1-n1ncc2c1COC[C@H]2NC(=O)c1ncn2c1CCCC2", "10 to 100 nM"],
  ["Cc1ccc(Cl)c(-n2ncc3c2COC[C@H]3NC(=O)c2ncn3c2CCCC3)c1", "10 to 100 nM"],
  ["COc1cccc(-n2ncc3c2COC[C@H]3NC(=O)c2ncn3c2CCCC3)c1Cl", "< 10 nM"],
  ["O=C(N[C@@H]1COCc2c1cnn2-c1c(Cl)cccc1Cl)c1ncn2c1CCCC2 (single isomer, unassigned)", "< 10 nM"],
  ["COc1ccccc1-n1ncc2c1COC[C@H]2NC(=O)c1ncn2c1CCCC2", "10 to 100 nM"],
  ["CCc1c(C(=O)N[C@@H]2COCc3c2cnn3-c2ccccc2F)ncn1C", "10 to 100 nM"],
  ["Cc1cccc(F)c1-n1ncc2c1COC[C@H]2NC(=O)c1ncn2c1CCCC2", "10 to 100 nM"],
  ["COc1cccc(C)c1-n1ncc2c1COC[C@H]2NC(=O)c1ncn2c1CCCC2", "10 to 100 nM"],
  ["COc1ccc(F)c(-n2ncc3c2COC[C@H]3NC(=O)c2n[nH]c3c2CCCC3)c1Cl", "10 to 100 nM"],
  ["O=C(N[C@@H]1COCc2c1cnn2-c1cccc(C(F)(F)F)c1Cl)c1ncn2c1CCCC2", "10 to 100 nM"]
]}
